Data origin: patent US5436229A

# Study target: human thrombin (Homo sapiens, UniProt P00734)
# Method: Thrombin amidase inhibition (Kass), chromogenic substrate
# Type: biochemical
Non-standard residues stand in square brackets, D forms with d. Residues, ends and D or L forms follow the SMILES beside them. dCha = N[C@H](CC1CCCCC1)C(=O)O
Measurement type: Kass Human Thrombin (L/mol × 10^6)
Your answer is read as L/mol × 10^6, so omit the unit and give the number.

Form field Kass Human Thrombin, entry Cl.Cl.Cl.N=C(N)NCCC[C@@H](C=O)NC(=O)[C@@H]1CCCN1C(=O)[C@H]1C[C@H](Oc2ccc3ccccc3c2)CN1.O [Example 6] : 21

Form field Kass Human Thrombin, entry CCNC(=O)N[C@H](Cc1ccccc1)C(=O)N1CCC[C@H]1C(=O)N[C@H](C=O)CCCNC(=N)N.Cl [Example 76] : 25

Form field Kass Human Thrombin, entry CCCCS(=O)(=O)N[C@H](Cc1ccccc1)C(=O)N1CCC[C@H]1C(=O)N[C@H](C=O)CCCNC(=N)N.Cl [Example 54] : 470

Form field Kass Human Thrombin, entry Cl.N=C(N)NCCC[C@@H](C=O)NC(=O)[C@@H]1CCCN1C(=O)[C@@H](Cc1ccccc1)NS(=O)(=O)c1nccs1 [Example 63] : 68

Form field Kass Human Thrombin, entry CC(=O)N[C@H](CC1CCCCC1)C(=O)N1CCC[C@H]1C(=O)N[C@H](C=O)CCCNC(=N)N.Cl [Example 72] (Ac-[dCha]-Pro-Arg-aldehyde) : 26

Form field Kass Human Thrombin, entry CCOC(=O)N[C@H](Cc1ccccc1)C(=O)N1CCC[C@@]1(C)C(=O)N[C@H](C=O)CCCNC(=N)N.Cl [Example 27] : 75
